The origin of these recorded values is patent US7915316B2.

target: EP2 (Homo sapiens); assay: EP2 receptor binding (bhEP2 / EP2 Binding); conditions: Table 2
Readout type: EC50 (nM)

Substance smiles	Display unit	EC50
CC(C)(C)c1ccc(CN(CCCCCCC(=O)O)S(=O)(=O)c2cccnc2)cc1	nM	829

I = CS(=O)(=O)N(CC#CCCCC(=O)O)CCOc1cc(Cl)cc(Cl)c1
II = CC(C)(C)c1ccc(CN(CCCCCCC(=O)O)S(=O)(=O)c2cccs2)cc1
QUERY: Select one: I or II . Criterion: greater recorded EC50. State your choice using its label.
RESULT: I

* * *

biological target: EP4 (Homo sapiens); experiment: Ca2+ signal, EP4; type: cell-based; conditions: relative to PGE2
Sequence (P35408 whole entry): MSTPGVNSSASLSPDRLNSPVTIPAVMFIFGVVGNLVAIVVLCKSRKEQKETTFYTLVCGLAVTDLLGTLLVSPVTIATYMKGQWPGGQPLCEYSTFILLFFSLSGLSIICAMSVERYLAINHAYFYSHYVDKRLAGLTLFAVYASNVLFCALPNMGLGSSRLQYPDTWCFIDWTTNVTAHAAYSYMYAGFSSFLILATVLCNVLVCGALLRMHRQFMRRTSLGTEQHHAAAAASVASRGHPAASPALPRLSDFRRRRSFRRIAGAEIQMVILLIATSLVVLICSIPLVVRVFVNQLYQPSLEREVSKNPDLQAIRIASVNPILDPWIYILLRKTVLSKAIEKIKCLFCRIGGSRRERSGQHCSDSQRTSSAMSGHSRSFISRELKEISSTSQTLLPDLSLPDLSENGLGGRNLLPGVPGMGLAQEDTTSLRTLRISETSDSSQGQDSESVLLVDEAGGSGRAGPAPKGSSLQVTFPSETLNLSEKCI
Readout type: Emax (%)

Examples from the recorded data:
Molecule	Display unit	Numeric readout
CC(C)(C)c1ccc(CN(CCCCCCC(=O)O)S(=O)(=O)c2cccs2)cc1	%	9
CCCCCC(O)c1ccc(CN(Cc2ccc(OCC(=O)O)cc2)S(=O)(=O)c2cccnc2)cc1 (centres unmarked)	%	2
CS(=O)(=O)N(C/C=C\CCCC(=O)O)CCOc1cc(Cl)cc(Cl)c1	%	10

a = CC(C)(C)c1ccc(CN(CCCCCCC(=O)O)S(C)(=O)=O)cc1
b = CS(=O)(=O)N(CC#CCCCC(=O)O)CCOc1cc(Cl)cc(Cl)c1
c = CC(C)(C)c1ccc(CN(CCCCCCC(=O)O)S(=O)(=O)c2cccnc2)cc1
d = CC(C)(C)c1ccc(CN(CCCCCCC(=O)O)S(=O)(=O)c2ccccc2)cc1
e = CC(C)(C)c1ccc(CN(Cc2ccc(OCC(=O)O)cc2)S(=O)(=O)c2cccnc2)cc1
QUERY: # rank by Emax, ascending (min first) Give me the labels in the order the question wants.
RESULT: e, c, a, b, d

* * *

target: EP2 (Homo sapiens, UniProt P43116); experiment: Ca2+ signal, EP2; format: cell-based; conditions: relative to PGE2
Sequence (P43116 whole entry): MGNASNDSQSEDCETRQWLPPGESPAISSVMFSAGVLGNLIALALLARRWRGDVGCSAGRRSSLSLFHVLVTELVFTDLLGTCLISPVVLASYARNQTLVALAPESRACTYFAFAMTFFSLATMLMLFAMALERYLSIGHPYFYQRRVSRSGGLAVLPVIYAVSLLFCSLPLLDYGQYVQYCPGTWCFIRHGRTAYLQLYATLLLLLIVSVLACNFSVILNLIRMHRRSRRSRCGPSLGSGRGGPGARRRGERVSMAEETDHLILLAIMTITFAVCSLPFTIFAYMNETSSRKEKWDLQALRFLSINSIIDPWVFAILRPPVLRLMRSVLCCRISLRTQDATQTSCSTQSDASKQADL
Readout type: Emax (%)

Compound	Display unit	Emax
CC(C)(C)c1ccc(CN(CCCCCCC(=O)O)S(C)(=O)=O)cc1	%	89
CC(C)(C)c1ccc(CN(CCCCCCC(=O)O)S(=O)(=O)c2cccs2)cc1	%	71
CC(C)(C)c1ccc(CN(CCCCCCC(=O)O)S(=O)(=O)c2ccccc2)cc1	%	78
CC(C)(C)c1ccc(CN(Cc2ccc(OCC(=O)O)cc2)S(=O)(=O)c2cccnc2)cc1	%	87
CS(=O)(=O)N(CC#CCCCC(=O)O)CCOc1cc(Cl)cc(Cl)c1	%	90
CCCCCC(O)c1ccc(CN(Cc2ccc(OCC(=O)O)cc2)S(=O)(=O)c2cccnc2)cc1 (centres unmarked)	%	92
CC(C)(C)c1ccc(CN(CCCCCCC(=O)O)S(=O)(=O)c2cccnc2)cc1	%	83
CS(=O)(=O)N(C/C=C\CCCC(=O)O)CCOc1cc(Cl)cc(Cl)c1	%	83

* * *

molecular target: EP2 (Homo sapiens); assay: functional activity at hEP2 (fhEP2); assay type: cell-based; settings: Table 1
Readout type: EC50 (µM)

Compound	Display unit	EC50
CCCCCC(O)c1ccc(CN(CCCCCCC(=O)O)S(=O)(=O)c2cccnc2)cc1 (stereo not shown)	µM	0.275
CCCCCC(O)c1ccc(CN(CCCCCCC(=O)O)S(=O)(=O)c2ccccc2)cc1 (stereo not shown)	µM	0.634

I = CCCCCC(O)c1ccc(CN(CCCCCCC(=O)O)S(=O)(=O)c2cccs2)cc1 (stereo not shown)
II = CCCCCC(O)c1ccc(CN(CCCCCCC(=O)O)S(C)(=O)=O)cc1 (stereo not shown) [Compound 12]
QUERY: Hi! Which is lower in terms of EC50, the first one I or the second one II ? Response format: the label of the selected entry.
RESULT: II
(II: 0.406 µM, I: 0.6 µM)
